Molecular target: T1, human CD33 Fc fusion protein (human, UniProt P20138 18-259)
T1 construct: also called hCD33-Fc; human CD33/Fc chimera (R&D Systems)
T1 sequence (P20138 18-259 limits assumed): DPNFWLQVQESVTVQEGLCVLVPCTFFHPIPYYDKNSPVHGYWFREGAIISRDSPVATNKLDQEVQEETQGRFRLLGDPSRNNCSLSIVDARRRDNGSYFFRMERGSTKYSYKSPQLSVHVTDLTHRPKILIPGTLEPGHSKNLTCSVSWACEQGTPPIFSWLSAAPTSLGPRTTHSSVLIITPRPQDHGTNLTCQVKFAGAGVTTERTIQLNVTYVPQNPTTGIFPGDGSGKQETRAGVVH
Experiment: ForteBio BLI or MSD-SET, IgG, avid;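 also: Anti-CD33 IgG affinity by BLI, IgG captured on AHQ sensors with antigen in solution and a one-to-one kinetic fit, or by MSD solution equilibrium titration with quadratic fit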
measured.parameter: pKd
Answers are plain numbers, as −log10 of the molar value.

C-38 (antibody, V domains shown, human IgG1) VH: QLQLQESGPGLVKPSETLSLTCTVSGGSISSSSYYWGWIRQPPGKGLEWIGSIYYSGSTYYNPSLKSRVTISVDTSKNQFSLKLSSVTAADTAVYYCAREATAAADHPGMDVWGQGTTVTVSS VL: DIQMTQSPSSLSASVGDRVTITCQASQDITNYLNWYQQKPGKAPKLLIYDASNLETGVPSRFSGSRSGTDFTFTISSLQPEDIATYYCQQYHDFPTFGGGTKVEIK :: 8.89
C-27 (antibody, V domains shown, human IgG1) VH: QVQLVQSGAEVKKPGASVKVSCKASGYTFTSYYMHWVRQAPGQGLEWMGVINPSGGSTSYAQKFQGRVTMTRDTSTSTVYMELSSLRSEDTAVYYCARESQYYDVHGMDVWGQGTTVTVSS VL: DIQMTQSPSSLSASVGDRVTITCRASQSISSYLNWYQQKPGKAPKLLIYAASSLQSGVPSRFSGSGSGTDFTLTISSLQPEDFATYYCQQHYDIPLTFGGGTKVEIK :: 8.78
C-41 (antibody, V domains shown, human IgG1) VH: QLQLQESGPGLVKPSETLSLTCTVSGGSISSSSYYWGWIRQPPGKGLEWIGSISYSGSTYYNPSLKSRVTISVDTSKNQFSLKLSSVTAADTAVYYCAREGGKGMDVWGQGTLVTVSS VL: EIVLTQSPGTLSLSPGERATLSCRASQSVSSSFLAWYQQKPGQAPRLLIYGASSRATGIPDRFSGSGSGTDFTLTISRLEPEDFAVYYCQQFGDLPTFGGGTKVEIK :: 8.97
C-60 (antibody, V domains shown, human IgG1) VH: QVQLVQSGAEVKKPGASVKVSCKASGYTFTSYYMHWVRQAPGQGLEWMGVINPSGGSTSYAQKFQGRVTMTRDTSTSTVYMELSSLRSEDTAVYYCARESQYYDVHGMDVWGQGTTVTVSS VL: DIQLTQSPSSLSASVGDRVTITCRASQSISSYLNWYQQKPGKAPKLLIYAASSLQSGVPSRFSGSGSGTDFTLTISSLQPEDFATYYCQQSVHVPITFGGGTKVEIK :: 8.78
C-44 (antibody, V domains shown, human IgG1) VH: QLQLQESGPGLVKPSETLSLTCTVSGGSISSSSYAWGWIRQPPGKGLEWIGSIYYSGSTYYNPSLKSRVTISVDTSKNQFSLKLSSVTAADTAVYYCAREGYVAAYGMDVWGQGTTVTVSS VL: DIQMTQSPSSLSASVGDRVTITCRASQSISSYLNWYQQKPGKAPKLLIYAASSLQSGVPSRFSGSGSGTDFTLTISSLQPEDFATYYCQQAYYPPWTFGGGTKVEIK :: 9.21

State recorded pKd for all listed binders.
1. C-26 (antibody, V domains shown, human IgG1) VH: QLQLQESGPGLVKPSETLSLTCTVSGGSISSNSYYWGWIRQPPGKGLEWIGSIYYSGSTYYNPSLKSRVTISVDTSKNQFSLKLSSVTAADTAVYYCARSPVYYDSSGYFQYYGMDVWGQGTTVTVSS VL: EIVLTQSPATLSLSPGERATLSCRASQSVSSYLAWYQQKPGQAPRLLIYDASKRATGIPARFSGSGSGTDFTLTISSLEPEDFAVYYCQQSIVWPPFTFGGGTKVEIK
2. C-24 (antibody, V domains shown, human IgG1) VH: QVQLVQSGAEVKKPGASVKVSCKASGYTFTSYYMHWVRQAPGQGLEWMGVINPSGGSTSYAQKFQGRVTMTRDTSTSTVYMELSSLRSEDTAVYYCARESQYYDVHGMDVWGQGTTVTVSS VL: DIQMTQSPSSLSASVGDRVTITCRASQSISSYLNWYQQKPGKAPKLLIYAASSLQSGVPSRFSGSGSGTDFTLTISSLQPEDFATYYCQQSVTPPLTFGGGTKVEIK
3. C-33 (antibody, V domains shown, human IgG1) VH: EVQLVESGGGLVQPGGSLRLSCAASGFTFSSYWMSWVRQAPGKGLEWVANIKSDGSEKYYVDSVKGRFTISRDNAKNSLYLQMNSLRAEDTAVYYCAREGRPRLGYAAFDIWGQGTMVTVSS VL: DIQMTQSPSSLSASVGDRVTITCRASQSISSYLNWYQQKPGKAPKLLIYAASSLQSGVPSRFSGSGSGTDFTLTISSLQPEDFATYYCQQQYDLPITFGGGTKVEIK
4. C-90 (antibody, V domains shown, human IgG1) VH: EVQLVESGGGLVQPGGSLRLSCAASGFTFSSYWMSWVRQAPGKGLEWVANINQDGSEKYYVDSVKGRFTISRDNAKNSLYLQMNSLRAEDTAVYYCAREAGAVTGYRWFDPWGQGTLVTVSS VL: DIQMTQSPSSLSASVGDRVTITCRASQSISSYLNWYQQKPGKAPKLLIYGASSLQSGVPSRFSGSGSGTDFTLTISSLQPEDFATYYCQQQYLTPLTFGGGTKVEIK

1: 9.41; 2: 8.81; 3: 9.02; 4: 8.82
